# Assay explanation: NCI Yeast Anticancer Drug Screen. Data for the bub3 strain (AID 167)
# Test parameters: S. cerevisiae bub3 mutant strain, at 50.0 µM
About 79,000 compounds went through this panel and 15% of them were active in at least one assay; those are over-represented in the sample as a whole. The source made the active and inactive calls. Rule as the data show it: active = growth inhibition above about 70%; inactive = the rest.
Choose the fitting class; nothing outside active, inactive is accepted.

Previously resolved entries follow.
>  <Molecule>
CC1CC(C)(C)CC(OCCN2CCCCC2)(c2ccccc2)C1 (stereo not given)

>  <Assigned label>
active

$$$$
>  <Molecule>
Cc1cc(NCCCCCCCCNc2cc(C)nc3cc(N)ccc23)c2ccc(N)cc2n1

>  <Assigned label>
active

$$$$
>  <Molecule>
COc1cc2ccnc(-c3c4ccccc4c(N)c4c(OC)c(OC)ccc34)c2cc1OC

>  <Assigned label>
inactive

$$$$
>  <Molecule>
C[CH2][Sn]([CH2]C)([O]C(=O)C(N)Cc1ccccc1)[O]C(=O)C(N)Cc1ccccc1 (stereo not given)

>  <Assigned label>
inactive

$$$$

Q. So what was the verdict on CN(C)CCNc1ccc2ncnc3c2c1C(=O)c1ccccc1-3 in this test?
A. active

Q. Further, for Oc1[nH]c2ccccc2c1N=NC(=S)N1CCCCC1 ?
A. active

Q. Input CCOC(=O)C1N=[N+](c2ccccc2)C(=O)/C1=C\n1c(=S)[nH]c2ccc([N+](=O)[O-])cc21 (stereo not given)
A. inactive

Q. What do you have for Nc1nc(N)c2nc(CNc3ccc(C(=O)NC(CCC(=O)O)C(=O)O)cc3F)cnc2n1 (stereo not given) ?
A. inactive

Q. What do you get for Cc1cccc[n+]1C1CCc2c(ccc3ccccc23)C1=O (stereo not given) ?
A. active

Q. Now the same for CCOC1Oc2ccccc2-c2nc(N)ncc21 (stereo not given)
A. inactive

Q. For CCCCCCCCCCCCNC(C)=O then?
A. active

Q. Same read-out for Cc1cc(O)c(C(C)C)cc1C1(c2cc(C(C)C)c(O)cc2C)OC(=O)c2ccccc21 ?
A. active

Q. Again, but for O=C(Oc1ccc2c(c1)CN(Cc1ccccc1)CO2)c1ccccc1
A. active

Q. Then COc1cc(/C=C2\NC(=O)N(/C=C3\C(=O)Oc4ccccc4C3=O)C2=O)ccc1O ?
A. active

Q. Input CNC(=O)OCc1c(COC(=O)NC)c(-c2ccc(Cl)cc2)n2c1CCC2
A. inactive

Q. Let us now turn to CCCCc1nnc(NS(=O)(=O)c2ccc(C)cc2)s1
A. inactive

Q. Quick one: CC(C)(C)N=C(NO)c1ccccc1
A. inactive

Q. Next up: CCOc1ccccc1N=Cc1c2ccccc2cc2ccccc12
A. active

Q. What about this molecule? CCC(C)NC1=NCC(C)S1 (stereo not given)
A. inactive

Q. What would you report for O=[N+]([O-])c1cc(F)c(F)cc1Sc1cc(F)c(F)cc1[N+](=O)[O-] ?
A. active

Q. Try this molecule next: CS(=O)(=O)SCc1ccc([N+](=O)[O-])cc1
A. active
